System: CCRF-CEM lymphoblasts
experiment-description: Cell cycle analysis by flow cytometry (propidium iodide)
Format: cell-based, human
experimental-setup: 5×IC50, 24 h
measured-metric: G2/M, % of positive cells
Please format your answer as a value with the unit trailing.

Qu. Look up G2/M, % of positive cells for this compound: Cc1cc(Cn2cc([C@]3(O)CC[C@H]4[C@@H]5CCc6cc(O)ccc6[C@H]5CC[C@@]43C)nn2)c(O)c(Cn2cc([C@]3(O)CC[C@H]4[C@@H]5CCc6cc(O)ccc6[C@H]5CC[C@@]43C)nn2)c1 [ED6]
Ans. 73.29%

Qu. Then what about the compound C[C@]12CC[C@@H]3c4ccc(O)cc4CC[C@H]3[C@@H]1CC[C@@]2(O)c1cn(Cc2cccc(Cn3cc([C@]4(O)CC[C@H]5[C@@H]6CCc7cc(O)ccc7[C@H]6CC[C@@]54C)nn3)n2)nn1 [ED, reference compound] ?
Ans. 59.11%
